Tested on: PC-14
Assay: relative viability (nuclei count vs DMSO), 5 days (fraction); higher = more cells survive
Conditions: first compound 0.08 µM
outcome measure: relative viability
One number for each entry.

Illustrative cases are given below, each with its answer.
compound	measured value
C=C1C(=O)O[C@@H](CCCCCCCC)[C@@H]1C(=O)O [C-75] + CCNC(=O)c1noc(-c2cc(C(C)C)c(O)cc2O)c1-c1ccc(CN2CCOCC2)cc1 [Luminespib] (partner 0.01 µM)	0.158
C=C1C(=O)O[C@@H](CCCCCCCC)[C@@H]1C(=O)O [C-75] + Nc1nc2[nH]cc(CCc3ccc(C(=O)N[C@@H](CCC(=O)O)C(=O)O)cc3)c2c(=O)[nH]1 [Pemetrexed] (partner 0.2 µM)	0.141
Oc1nc(-c2ccc(C(F)(F)F)cc2)nc2c1CSCC2 [XAV939] + C[C@@H](Oc1cc(-c2cnn(C3CCNCC3)c2)cnc1N)c1c(Cl)ccc(F)c1Cl [Crizotinib] (partner 1 µM)	0.97

Batch of 2 compounds: report relative viability for each.
1. Oc1nc(-c2ccc(C(F)(F)F)cc2)nc2c1CSCC2 [XAV939] + CC(=O)Nc1cccc(-n2c(=O)n(C3CC3)c(=O)c3c(Nc4ccc(I)cc4F)n(C)c(=O)c(C)c32)c1 [Trametinib] (partner 0.02 µM)
2. C=C1C(=O)O[C@@H](CCCCCCCC)[C@@H]1C(=O)O [C-75] + C[C@@H](Oc1cc(-c2cnn(C3CCNCC3)c2)cnc1N)c1c(Cl)ccc(F)c1Cl [Crizotinib] (partner 1 µM)

1: 0.833; 2: 0.836

---

Tested on: LC-2-ad
Assay: relative viability (nuclei count vs DMSO), 5 days (fraction); higher = more cells survive
Conditions: first compound 0.253 µM
So I've got a bunch of molecules here, and I need their relative viability values.
Answers are plain numbers.

Illustrative cases are given below, each with its answer.
molecule	relative viability
C=C1C(=O)O[C@@H](CCCCCCCC)[C@@H]1C(=O)O [C-75] + CCNC(=O)c1noc(-c2cc(C(C)C)c(O)cc2O)c1-c1ccc(CN2CCOCC2)cc1 [Luminespib] (partner 0.01 µM)	0.801
C=C1C(=O)O[C@@H](CCCCCCCC)[C@@H]1C(=O)O [C-75] + CS(=O)(=O)CCNCc1ccc(-c2ccc3ncnc(Nc4ccc(OCc5cccc(F)c5)c(Cl)c4)c3c2)o1 [Lapatinib] (partner 2 µM)	0.919
C=C1C(=O)O[C@@H](CCCCCCCC)[C@@H]1C(=O)O [C-75] + N=C(N)NC(=N)NCCc1ccccc1 [Phenformin] (partner 250 µM)	0.566

Batch of 2 molecules: report relative viability for each.
1. Oc1nc(-c2ccc(C(F)(F)F)cc2)nc2c1CSCC2 [XAV939] + CC(C)C[C@H](NC(=O)[C@H](Cc1ccccc1)NC(=O)c1cnccn1)B(O)O [Bortezomib] (partner 0.002 µM)
2. Oc1nc(-c2ccc(C(F)(F)F)cc2)nc2c1CSCC2 [XAV939] + C[C@]1(O)C[C@@H](c2nc(-c3ccc4ccc(-c5ccccc5)nc4c3)c3c(N)nccn32)C1 [Linsitinib] (partner 1 µM)

1. 0.919
2. 0.797

---

Test system: NCI-H2023
Test: relative viability (nuclei count vs DMSO), 5 days (fraction); higher = more cells survive
Details: first compound 0.05 µM
So I've got a bunch of compounds here, and I need their relative viability values.
Answers are plain numbers.

Illustrative cases are given below, each with its answer.
compound	target or test system	relative viability
CC1(C)CCC(c2ccc(Cl)cc2)=C(CN2CCN(c3ccc(C(=O)NS(=O)(=O)c4ccc(N[C@H](CCN5CCOCC5)CSc5ccccc5)c(S(=O)(=O)C(F)(F)F)c4)cc3)CC2)C1 [Navitoclax] + COc1cc2c(Oc3ccc(NC(=O)C4(C(=O)Nc5ccc(F)cc5)CC4)cc3F)ccnc2cc1OCCCN1CCOCC1 [Foretinib] (partner 0.25 µM)	NCI-H2023	0.819
CC1(C)CCC(c2ccc(Cl)cc2)=C(CN2CCN(c3ccc(C(=O)NS(=O)(=O)c4ccc(N[C@H](CCN5CCOCC5)CSc5ccccc5)c(S(=O)(=O)C(F)(F)F)c4)cc3)CC2)C1 [Navitoclax] + CC(=O)c1c(C)c2cnc(Nc3ccc(N4CCNCC4)cn3)nc2n(C2CCCC2)c1=O [Palbociclib] (partner 0.5 µM)	NCI-H2023	0.384
CC1(C)CCC(c2ccc(Cl)cc2)=C(CN2CCN(c3ccc(C(=O)NS(=O)(=O)c4ccc(N[C@H](CCN5CCOCC5)CSc5ccccc5)c(S(=O)(=O)C(F)(F)F)c4)cc3)CC2)C1 [Navitoclax] + Cc1nc(Nc2ncc(C(=O)Nc3c(C)cccc3Cl)s2)cc(N2CCN(CCO)CC2)n1 [Dasatinib] (partner 0.075 µM)	NCI-H2023	0.621
CC1(C)CCC(c2ccc(Cl)cc2)=C(CN2CCN(c3ccc(C(=O)NS(=O)(=O)c4ccc(N[C@H](CCN5CCOCC5)CSc5ccccc5)c(S(=O)(=O)C(F)(F)F)c4)cc3)CC2)C1 [Navitoclax] + N=C(N)NC(=N)NCCc1ccccc1 [Phenformin] (partner 250 µM)	NCI-H2023	0.382
CC1(C)CCC(c2ccc(Cl)cc2)=C(CN2CCN(c3ccc(C(=O)NS(=O)(=O)c4ccc(N[C@H](CCN5CCOCC5)CSc5ccccc5)c(S(=O)(=O)C(F)(F)F)c4)cc3)CC2)C1 [Navitoclax] + C[C@@H](Oc1cc(-c2cnn(C3CCNCC3)c2)cnc1N)c1c(Cl)ccc(F)c1Cl [Crizotinib] (partner 1 µM)	NCI-H2023	0.694

Batch of 2 compounds: report relative viability for each.
1. CC1(C)CCC(c2ccc(Cl)cc2)=C(CN2CCN(c3ccc(C(=O)NS(=O)(=O)c4ccc(N[C@H](CCN5CCOCC5)CSc5ccccc5)c(S(=O)(=O)C(F)(F)F)c4)cc3)CC2)C1 [Navitoclax] + COc1cccc2cc(-c3nc([C@H]4CC[C@H](C(=O)O)CC4)n4ncnc(N)c34)[nH]c12 [OSI-027] (partner 0.5 µM)
2. CC1(C)CCC(c2ccc(Cl)cc2)=C(CN2CCN(c3ccc(C(=O)NS(=O)(=O)c4ccc(N[C@H](CCN5CCOCC5)CSc5ccccc5)c(S(=O)(=O)C(F)(F)F)c4)cc3)CC2)C1 [Navitoclax] + CS(=O)(=O)N1CCN(Cc2cc3nc(-c4cccc5[nH]ncc45)nc(N4CCOCC4)c3s2)CC1 [Pictilisib] (partner 1 µM)

0.338
0.22
